Assay: growth effects on S. cerevisiae YJM789 – YJM789 clinical isolate, OD600, 24 h, basal, primary screen (AID 1089);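 note: growth of clinical yeast isolate S. cerevisiae YJM 789 seeded 1000 cells per well; test concentration not given here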
Conditions: called active from +8 up or from −8 down
The source made the active and inactive calls.
Please reply with one of these outcomes: yes (1) (active), no (0) (inactive)

Previously resolved entries follow.
{"compound": "O=C1O[C@@H](c2ccccc2)[C@@H](c2ccccc2)N2[C@@H](c3ccc(O)cc3)[C@]3(C(=O)Nc4ccc(C#CC5=CCCCC5)cc43)[C@@H](C(=O)Nc3nc4ccccc4s3)[C@H]12", "assigned_category": "no (0)"}
{"compound": "Cc1ccc(-c2cccc(=O)o2)cc1", "assigned_category": "no (0)"}
{"compound": "CC(C)C(CO)N1C(=O)[C@@H]2[C@H]3C(=O)OCC=C[C@H]3OC23C=CCN(CCN2CCOCC2)C(=O)[C@@H]13 (some centres undefined)", "assigned_category": "no (0)"}

# input for lookup
// return assay outcome for `C=C[C@H](C)[C@H](OC(=O)Nc1ccc(SC)cc1)c1ccc(O)c2ccccc12`
yes (1)

----------
Biological target: Carbonic anhydrase 2 (Homo sapiens) (UniProt P00918)
Assay: compounds binding carbonic anhydrase 2 – biochemical, small-molecule microarray, Alexa647-labelled CAII, profiling panel (AID 1122)
Details: CAII-A647 binding fluorescence, higher = more signal
measured_metric: composite z-score
Please respond with just the number, no unit label.

Below, 3 compounds whose answers are already recorded.
{"compound": "COCCOC(=O)N1C(=O)[C@@]2(c3cc(C#Cc4ccc(OC)cc4)ccc31)[C@H](c1ccc(OCCO)cc1)N1[C@H](c3ccccc3)[C@H](c3ccccc3)OC(=O)[C@H]1[C@@H]2C(N)=O", "system_tested": "Carbonic anhydrase 2 (Homo sapiens) (UniProt P00918)", "composite z-score": 0.573}
{"compound": "COC(=O)c1ccc(OC)c(/C=C\\CC(CCc2ccccc2)OC(=O)c2ccncc2)c1 (centres undefined)", "system_tested": "Carbonic anhydrase 2 (Homo sapiens) (UniProt P00918)", "composite z-score": 0.388}
{"compound": "COC(=O)[C@@]1(Cc2ccccc2N=[N+]=[N-])N=C(c2ccc(OCCCO)cc2)O[C@H]1c1ccccc1", "system_tested": "Carbonic anhydrase 2 (Homo sapiens) (UniProt P00918)", "composite z-score": 0.593}

Now, please, on to the next compound.
Retrieve composite z-score measured for COc1cc(C(O)C2C=CC3C(=O)NC(=O)C3N2Nc2ccc(Cl)cc2Cl)cc(OC)c1OC (centres undefined) and print it.
0.752

----------
Target: Calmodulin-1 (Homo sapiens) (UniProt P0DP23)
Test: small molecules binding Ca-loaded calmodulin-1 – biochemical, small-molecule microarray, Cy5-labelled CALM1, plus calcium, artefact control for SMM control-protein annotation, profiling panel (AID 1112);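 note: score merges spot fluorescence with signal to noise from triplicate slides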
Details: Cy5-CALM1 binding fluorescence, higher = more signal
Please enter 1 where composite z-score is greater than or equal to 0.09, and 0 where it is lower.

Previously resolved entries follow.
{"compound": "C=CCC(OC(C)=O)[C@@H]1[C@@H](N(Cc2ccc(-c3cccc(C(F)(F)F)c3)o2)C(=O)c2cccc3ccccc23)c2cc(OCCCO)ccc2N1C(=O)c1ccc(-c2ccccc2)cc1 (some centres not stated)", "system_tested": "Calmodulin-1 (Homo sapiens) (UniProt P0DP23)", "assigned_category": 1}
{"compound": "COCC(=C=CC[C@@H](O)c1ccccc1OCCO)C[C@@H](O)COCc1ccccc1", "system_tested": "Calmodulin-1 (Homo sapiens) (UniProt P0DP23)", "assigned_category": 1}
{"compound": "O=C1N(CCS(=O)(=O)c2ccccc2)c2ccccc2[C@H]2OC(c3ccc(OCCCO)cc3)=N[C@@]12CCS(=O)(=O)c1ccccc1", "system_tested": "Calmodulin-1 (Homo sapiens) (UniProt P0DP23)", "assigned_category": 1}

# input for lookup
Textbook exercise: given the entry `CCCCCCC#C[Si](O[C@H](c1ccccc1)c1cn(Cc2cccc(Cl)c2)nn1)(C(C)C)C(C)C` , state whether its composite z-score is greater than or equal to 0.09.
0

----------
Reported composite z-score by item:
Assay: COS7 lysate on small-molecule microarray, probe aHis, 635 nm (AID 1123);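 note: z-score combines 667nm fluorescence intensity with signal-to-noise per printed compound spot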
Details: COS7 cell lysate, fluorescence, higher = more signal
Please respond with just the number, no unit label.

Below, 4 compounds whose answers are already recorded.
{"compound": "O=C1NC(=O)C2C1C=CC(C(O)c1ccc3c(c1)OCO3)N2Nc1ccc(Cl)cc1Cl (centres undefined)", "measured_metric": "composite z-score", "test_result": 3.03}
{"compound": "O=C(C=C(CC(O)c1cccc(Cl)c1)OCCF)OCCF (centres undefined)", "measured_metric": "composite z-score", "test_result": 0.143}
{"compound": "CC(C)N1C(=O)c2ccccc2[C@](C)(C(=O)O)[C@@H]1c1ccc(CO)cc1", "measured_metric": "composite z-score", "test_result": 0.119}
{"compound": "CN(C)CCCCNC(=O)[C@H]1C[C@H]2C(=O)N[C@@H](CCCC[N+](C)(C)C)C(=O)N2[C@H]1c1cccc(OCCO)c1", "measured_metric": "composite z-score", "test_result": 0.726}

Retrieve composite z-score measured for `CN(C)CCCC[C@@H]1NC(=O)[C@H]2C[C@@H](C(=O)NCCCCCCNC(=O)CS)[C@@H](c3ccc(O)cc3)N2C1=O` and print it.
2.66

Retrieve composite z-score measured for `O=C(CS)NCCCCCNC(=O)[C@@H]1C[C@@H]2C(=O)N3CCC[C@H]3C(=O)N2[C@@H]1c1ccc(O)cc1` and print it.
1.86

Retrieve composite z-score measured for CCCCCCCCCCC(O)C1C=CC2C(=O)NC(=O)C2N1Nc1ccccn1 (centres undefined) and print it.
1.85

Retrieve composite z-score measured for `Cc1ccc(N2C(=O)c3ccccc3[C@](C)(C(=O)NC(C)C)[C@@H]2c2ccc(CO)cc2)nc1` and print it.
1.64

Retrieve composite z-score measured for CN1C(=O)C2C=CC(C(O)COCc3ccccc3)N(Nc3ccccc3)C2C1=O (centres undefined) and print it.
1.44

----------
System: glycogen synthase kinase-3 (GSK3A per assay name; protocol says GSK3B)
Test: compounds binding glycogen synthase kinase-3 – biochemical, small-molecule microarray, 635 nm fluorescence, GSK3A, primary screen (AID 1103); note: the record names both GSK3A and GSK3B
Conditions: fluorescence 635 nm, higher = more signal
measured_metric: composite z-score

{"molecule": "CC(C)C[C@@H]1NC(=O)[C@@H]2C[C@H](C(=O)NCCCC[N+](C)(C)C)[C@H](c3cccc(OCCO)c3)N2C1=O", "composite z-score": 0.914}
{"molecule": "O=C1c2ccccc2C(=O)C2CC([C@H]3Oc4ccccc4S(=O)(=O)N4CCC[C@@H]34)=CCC12 (stereo partly drawn)", "composite z-score": 0.301}
{"molecule": "CN1C(=O)C2C=CC(C(O)c3cccc4ccccc34)N(NC(=O)OC(C)(C)C)C2C1=O (stereo not drawn)", "composite z-score": 1.03}
{"molecule": "CN1C(=O)C2C=CC(C(O)c3ccc(F)cc3)N(N3CCCCC3)C2C1=O (stereo not drawn)", "composite z-score": 0.432}
{"molecule": "CN(C)CCCCNC(=O)[C@H]1C[C@H]2C(=O)N[C@@H](CCCC[N+](C)(C)C)C(=O)N2[C@H]1c1cccc(OCCO)c1", "composite z-score": 0.571}
{"molecule": "CCCCC(O)C1C=CC2C(=O)N(Cc3ccccc3)C(=O)C2N1n1cnnc1 (stereo not drawn)", "composite z-score": 0.144}
{"molecule": "CC(C)(C)N1CC=CC23O[C@@H]4C=CCCOC(=O)C4[C@H]2C(=O)N(CCCO)[C@@H]3C1=O (stereo partly drawn)", "composite z-score": -0.764}

Now, please, on to the next molecule.
Retrieve composite z-score measured for `COCC(=C=CC[C@@H](O)c1ccccc1OCCO)C[C@@H](O)c1ccccn1` and print it.
0.207

----------
Test: blockers of DNA damage checkpoint Chk1 activation – imaging, HeLa, hydroxyurea, phospho-Chk1 nuclear intensity, primary screen (AID 1187); note: test concentration not given here
Conditions: hydroxyurea-induced phospho-Chk1 immunofluorescence imaging, higher = more signal
Each record gets a class by z-score: low value (below -0.2), medium value (-0.2 to below 0.4), high value (0.4 or more)

Previously resolved entries follow.
{"compound": "COCCCNC(=O)[C@@H]1c2ccccc2C(=O)N(Cc2cc(F)cc(C(F)(F)F)c2)[C@H]1c1ccc(CO)cc1", "assigned_category": "low value"}
{"compound": "O=c1c2ccc(Br)cc2nc(-c2ccccc2)n1Cc1cccc(O)c1", "assigned_category": "low value"}
{"compound": "COC(=O)[C@@]1(Cc2ccccc2N=[N+]=[N-])N=C(c2ccc(OCCCO)cc2)O[C@H]1c1ccccc1", "assigned_category": "low value"}
{"compound": "CN(C)CCCC[C@@H]1NC(=O)[C@H]2C[C@@H](C(=O)NCCCCCCNC(=O)CS)[C@@H](c3ccc(O)cc3)N2C1=O", "assigned_category": "medium value"}

# input for lookup
Which class is correct for the following compound? `Cc1ccc(S[C@]2(C(=O)NCCN3CCOCC3)CC(=O)N(C3Cc4ccccc4C3)[C@@H]2c2ccc(CO)cc2)cc1`
high value
